Target: KRas G12R (Homo sapiens, UniProt P01116, G12R);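 note: TR-FRET displacement assay of compound binding to KRas, read after one hour at room temperature, potency from a four-parameter fit of percent-of-control values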
Sequence (P01116 1-169 isoform P01116-2 G12R): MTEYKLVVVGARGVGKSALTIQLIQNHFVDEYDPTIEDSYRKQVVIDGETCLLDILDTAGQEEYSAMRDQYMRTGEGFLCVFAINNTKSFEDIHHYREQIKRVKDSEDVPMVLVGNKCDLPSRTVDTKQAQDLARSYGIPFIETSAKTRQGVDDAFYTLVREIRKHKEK
Test: biochemical
Provide the recorded log10 IC50 for the entries that follow.
Kindly note that the scale is log10 and the underlying IC50 is in nM.

Consider the worked cases shown below.
1. O=C1CC2(CCCN(c3nc(OC[C@@]45CCCN4C[C@H](F)C5)nc4c(F)c(-c5cc(O)cc6ccc(F)c(F)c56)ncc34)C2)CN1 (stereo partly drawn) ... 0.60
2. CC1(O)CCCN(c2nc(OCC3(CN4CCCC4)CC3)nc3c(F)c(-c4cccc5cccc(F)c45)ncc23)C1 (stereo not drawn) ... 3.84
3. Fc1c(-c2cccc3cccc(F)c23)ncc2c(NCc3c[nH]c4ncccc34)nc(OCC34CCCN3CCC4)nc12 ... 2.06
4. CS(=O)(=O)C1CCCCCN(c2nc(OCC34CCCN3CCC4)nc3c(F)c(-c4cccc5cccc(F)c45)ncc23)C1 (stereo not drawn) ... 4.16

// moving on: another record for log10 IC50
Entry O=C1NC(=O)C2(COCCN(c3nc(OCC45CCCN4CCC5)nc4c(F)c(-c5cccc6cccc(F)c56)ncc34)C2)N1 (stereo not drawn) : reported log10 IC50 = ?
2.08

* * *

Test system: pERK in H460 cells
Assay: Inhibition of KRas phosphorylation of ERK (Cisbio HTRF pERK assay)
Conditions: Homo sapiens, NCI-H460, read-out: Inhibition (HTRF IC50) of KRas-mediated Phosphorylation of ERK, H460
The label yes is reserved for IC50 strictly under 200 nM; no covers values equal to or above it.

Please review the following examples before continuing.
1) CCc1c(F)ccc2cc(O)cc(-c3ncc4c(N5C[C@@H]6C[C@H](C5)[C@H](O)C6)nc(OCC5(CN(C)C)CC5)nc4c3F)c12 [Example 360] ... yes
2) CCc1c(F)ccc2cc(O)cc(-c3ncc4c(N5CCCn6nc(C(=O)NC(C)C)cc6C5)nc(OC[C@@]56CCCN5C[C@H](F)C6)nc4c3F)c12 [Example 357] ... no
3) CCc1c(F)ccc2cc(O)cc(-c3ncc4c(N5CCCn6nc(C(=O)N(C)CC)cc6C5)nc(OC[C@@]56CCCN5C[C@H](F)C6)nc4c3F)c12 [Example 358] ... yes

IC50 under 200 nM? Item: CCc1c(F)ccc2cc(O)cc(-c3ncc4c(N5CC6CC(O)CC5C6)nc(OC[C@@]56CCCN5C[C@H](F)C6)nc4c3F)c12 (stereo partly drawn) [Example 58]
yes

Thanks! And C#Cc1c(F)ccc2cc(O)cc(-c3ncc4c(N5CCOCC(C)(O)C5)nc(OC[C@@]56CCCN5C[C@H](F)C6)nc4c3F)c12 (stereo partly drawn) [Example 149] ?
yes

* * *

Target: KRas G12V (Homo sapiens, UniProt P01116, G12V);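 note: KRas binding measured by TR-FRET displacement at room temperature, IC50 fitted from percent of control values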
Sequence (P01116 1-169 isoform P01116-2 G12V): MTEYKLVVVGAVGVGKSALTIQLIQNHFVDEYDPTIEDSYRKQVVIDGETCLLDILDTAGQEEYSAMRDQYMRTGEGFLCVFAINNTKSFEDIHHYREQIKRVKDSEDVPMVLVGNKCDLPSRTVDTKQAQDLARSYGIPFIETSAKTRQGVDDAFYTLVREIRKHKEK
Test: biochemical
parameter_measured: pIC50
Numbers only, as −log10 of the molar value.

1. CCc1c(F)ccc2cc(O)cc(-c3ncc4c(N5CCN6C(=O)NCC6C5)nc(OC[C@@]56CCCN5C[C@H](F)C6)nc4c3F)c12 (stereo partly shown) ... 7.29
2. CC1(O)CCCN(c2nc(OCC34CCCN3CCC4)nc3c(F)c(-c4cccc5scnc45)ncc23)C1 (stereo not shown) ... 4.77
3. Fc1c(-c2cccc3cccc(F)c23)ncc2c(N3CCCc4ncccc4C3)nc(OCC34CCCN3CCC4)nc12 ... 4.65
4. O=S1(=O)NCCC2(CCCN(c3nc(OCC45CCCN4CCC5)nc4c(F)c(-c5cccc6cccc(F)c56)ncc34)C2)N1 (stereo not shown) ... 5.74
5. CN1CCC[C@H]1COc1nc(N2CCOCC2)c2cnc(-c3cc(O)cc4ccccc34)c(F)c2n1 ... 5.31
6. O=S1(=O)CC[C@H](CNc2nc(OCC34CCCN3CCC4)nc3c(F)c(-c4cccc5cccc(F)c45)ncc23)N1 ... 5.06
7. CCc1c(F)ccc2cc(O)cc(-c3ncc4c(OCCCc5cccnc5)nc(OC[C@@]56CCCN5C[C@H](F)C6)nc4c3F)c12 ... 6.88
8. CCc1cccc2cccc(-c3ncc4c(N5CC6C(=O)NC(=O)C6C5)nc(OCC56CCCN5CCC6)nc4c3F)c12 (stereo not shown) ... 7.21

Then there is this molecule:
I have this molecule here, CCc1c(F)ccc2cc(O)cc(-c3ncc4c(NCC(N)CC(=O)O)nc(OC[C@@]56CCCN5C[C@H](F)C6)nc4c3F)c12 (single isomer, unassigned) , and I need its recorded pIC50.
8.05

These measurements were taken from patent US12398154B2.
